Biological target: PDEδ (Homo sapiens)
Test: Fluorescence polarization competition binding assay (displacement titration of labeled Atorvastatin-probe)
Conditions: fluorescence polarization assay, displacement of fluorescent-tagged Atorvastatin analog from PDEδ; read-out: KD
pKd: −log10 of the molar value.
Recorded pKd for the following compounds

Some compounds with recorded pKd:
structure as smiles: Cc1ccc(CCNC(=O)CCCn2nc(C)c3c(C)n(-c4ccc(C)cc4)nc3c2=O)cc1
pKd: > 7.52

structure as smiles: Cc1ccc(CNC(=O)CCCn2nc(C)c3c(C)n(-c4ccccc4)nc3c2=O)cc1
pKd: 7.00 to 7.52

structure as smiles: Cc1c2cnn(-c3ccccc3)c(=O)c2c(C)n1CCCC(=O)NC1CC1
pKd: 6.00 to 7.00

structure as smiles: Cc1c2cnn(-c3ccccc3)c(=O)c2c(C)n1CCCC(=O)NCc1ccccc1
pKd: 7.00 to 7.52

structure as smiles: COc1ccccc1-c1nnc(CCCn2c(C)c3cnn(-c4ccccc4)c(=O)c3c2C)o1
pKd: 6.00 to 7.00

structure as smiles: Cc1ccc(-n2nc3c(=O)n(CCCC(=O)NCCc4cccc(Cl)c4)nc(C)c3c2C)cc1
pKd: > 7.52

The reported pKd of the compound "Cc1c2cnn(-c3ccccc3)c(=O)c2c(C)n1CCCc1nc(-c2ccccc2)no1" was 6.00 to 7.00

The reported pKd of the compound "Cc1c2cnn(-c3ccccc3)c(=O)c2c(C)n1CCCc1nc(-c2ccc(F)cc2)no1" was 6.00 to 7.00
